Where do the numbers come from? From paper PMC5856786.

- ASSAY SUMMARY: In vivo pharmacokinetic parameters of (R)-HZ05
- Design: species or system C57B1/6N mice
- CONDITIONS USED: female, C57B1/6N, mouse, plasma, po; mice; p.o, dose 50 mg kg-1; read-out: AUC 0-h
OUTCOME MEASURE: AUC
Record the result as number plus unit.

Reported AUC ( O=C(N[C@@H]1CCCc2c1cnn2-c1ccccc1F)c1onc2c1CCCC2 [(R)-HZ05] ) = 9.9 µM·h

* * *

- ASSAY SUMMARY: In vivo pharmacokinetic parameters of (R)-HZ05
- Design: species or system C57B1/6N mice
- CONDITIONS USED: female, C57B1/6N, mouse, plasma, po; mice; p.o, dose 50 mg kg-1
- Protocol: Waters Acquity UPLC (Waters Corp.) was used for all LC/MS and LC/MS/MS experiments. For chromatographic separation a general gradient was used (5 % mobile phase B to 90 % over 2 min total run) on a C18 BEH 1.7 µm column 2 × 50 mm (Waters Corp.). Mobile phase A consisted of 5 % acetonitrile 0.1 % formic acid and mobile phase B 100 % acetonitrile 0.1 % formic acid. The flow rate was 0.5 mL min-1 and 3 µL of the sample was injected. A standard curve between 3−1000 nM was prepared for each compound. […]
OUTCOME MEASURE: AUC(0-inf) (µM·h)
Record the value in µM·h, omitting the unit from your answer.

Reported AUC(0-inf) ( O=C(N[C@@H]1CCCc2c1cnn2-c1ccccc1F)c1onc2c1CCCC2 [(R)-HZ05] ) = 9.9
